testedSystem: human ALK (hALK, purified ALK protein) (Homo sapiens, UniProt Q9UM73)
Sequence (Q9UM73 with tags, fused parts or gaps): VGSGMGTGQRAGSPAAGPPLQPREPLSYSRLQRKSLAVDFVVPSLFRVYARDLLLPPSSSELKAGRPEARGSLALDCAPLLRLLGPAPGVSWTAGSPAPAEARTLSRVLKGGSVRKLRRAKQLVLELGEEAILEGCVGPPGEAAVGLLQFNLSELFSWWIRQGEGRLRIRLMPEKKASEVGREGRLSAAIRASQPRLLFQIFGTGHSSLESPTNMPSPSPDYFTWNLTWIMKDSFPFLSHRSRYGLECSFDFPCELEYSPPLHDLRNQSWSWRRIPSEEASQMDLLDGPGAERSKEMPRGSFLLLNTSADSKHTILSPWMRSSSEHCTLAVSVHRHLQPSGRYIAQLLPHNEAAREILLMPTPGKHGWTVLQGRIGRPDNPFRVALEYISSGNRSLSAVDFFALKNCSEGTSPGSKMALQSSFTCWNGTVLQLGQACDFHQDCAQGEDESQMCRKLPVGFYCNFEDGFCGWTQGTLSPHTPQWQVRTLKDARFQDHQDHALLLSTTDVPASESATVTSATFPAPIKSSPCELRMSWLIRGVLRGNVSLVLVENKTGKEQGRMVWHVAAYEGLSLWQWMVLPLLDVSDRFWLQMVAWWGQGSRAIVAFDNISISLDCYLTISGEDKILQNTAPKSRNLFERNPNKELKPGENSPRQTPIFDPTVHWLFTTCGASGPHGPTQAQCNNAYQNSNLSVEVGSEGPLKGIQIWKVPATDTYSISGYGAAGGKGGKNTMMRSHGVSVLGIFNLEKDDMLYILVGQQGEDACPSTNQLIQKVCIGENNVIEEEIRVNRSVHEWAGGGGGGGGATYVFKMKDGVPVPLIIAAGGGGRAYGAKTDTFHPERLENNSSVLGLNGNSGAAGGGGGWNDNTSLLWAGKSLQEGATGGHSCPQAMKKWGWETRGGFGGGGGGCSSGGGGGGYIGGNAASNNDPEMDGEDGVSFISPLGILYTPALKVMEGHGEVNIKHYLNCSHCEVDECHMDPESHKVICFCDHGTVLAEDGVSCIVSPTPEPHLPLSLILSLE
assayText: Monovalent affinity of humanized antibodies, BLitz System, human ALK
Format: binding
testContext: BLitz, purified ALK protein at 70 μg/mL, single binding site fit; antibody by plate position of Table 19
Experimental: The humanized ALK antibodies designed in Example 1 were tested for monovalent affinity, wherein the kinetic data are fit to a single binding site equation to obtain relative affinity values. Kinetic measurements of the monovalent affinity of the 96 humanized ALK antibody variants (Ab351-Ab446) were collected. […] Amino acid residues that differ between rat ALK and mouse ALK are boxed. KD values for both NB1 (human) cells and Neuro2a (mouse) cells were also determined.
assayReadout: Kd (µM)
// note: answer is a bare numeric in µM

Consider the following illustrative entries.
Ab403: humanized anti-ALK antibody; VL SEQ ID NO: 425, VH SEQ ID NO: 433 (antibody, V domains shown, VH domain - Ab355; VL domain - Ab399) VH: QVQLVQSGAEVAKPGASVKLSCKASGYTFTSYWMHWVKQAPGQGLEWIGYIKPSSGYTKYNQKFKDKATLTADKSTSTAYMELRSLRSDDTAVYYCARDYYGSSSWFAYWGQGTLVTVSS VL: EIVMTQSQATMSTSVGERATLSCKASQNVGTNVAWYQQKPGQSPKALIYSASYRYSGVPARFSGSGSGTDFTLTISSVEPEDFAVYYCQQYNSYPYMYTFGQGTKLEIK = 0.0942
Ab400: humanized anti-ALK antibody; VL SEQ ID NO: 425, VH SEQ ID NO: 430 (antibody, V domains shown, VH domain - Ab352; VL domain - Ab399) VH: EVQLVQSGPEVKKPGTSVKLSCKASGYTFTSYWMHWVRQARGQRLEWIGYIKPSSGYTKYNQKFKDRATLTADKSTSTAYMELSSLRSEDTAVYYCARDYYGSSSWFAYWGQGTLVTVSS VL: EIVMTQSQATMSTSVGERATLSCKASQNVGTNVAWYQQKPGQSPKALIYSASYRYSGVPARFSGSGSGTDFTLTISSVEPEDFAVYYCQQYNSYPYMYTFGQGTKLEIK = 0.0815

So, Ab437: humanized anti-ALK antibody; VL SEQ ID NO: 428, VH SEQ ID NO: 431 (antibody, V domains shown, VH domain - Ab353; VL domain - Ab435) VH: EVQLVQSGAEVKKPGTSVKLSCKASGYTFTSSAMQWVKQAPGQGLEWIGYIKPSSGYTKYNQKFKDKATLTADKSTSTAYMELSSLRSEDTAVYYCARDYYGSSSWFAYWGQGTLVTVSS VL: EIVMTQSQATMSTSVGERATLSCKASQNVGTNVAWYQQKPGQSPKALIYGASTRATGVPARFSGSGSGTDFTLTISSVEPEDFAVYYCQQYNSYPYMYTFGQGTKLEIK ? Its Kd was 6080
